Source listed as the NTF2 design screens of Basanta et al. (2020).

# Lookup of reported protease stability score keyed by entry
ASSAY METHOD TEXT: protease stability score; higher = more stable; yeast display proteolysis, trypsin and chymotrypsin

Query block: Which protease stability score is listed for SEDEETIEDFVKWFVRALKTGDEDTINEMIDPHVLLHINGKDYHGRELVWRHFEELGIKHTELRHLHTYNGRVELESRLIVDGRVHKVHFHARKVNGRWTVTKVEIR ?
Result block: 2.61

Query block: Which protease stability score is listed for DEDERLSRELLKRWMTSIMTGDETSSQHLADPHDRIDINGREFHGRELATWVAHHLRIDSIQERHQEIQGEKLIVLGETDYIVDGVKQIRRTEYILRKFNGRWFFESIIFR ?
Result block: 0.9

Query block: Which protease stability score is listed for DDWHEILKHHFDNEVESILTGDEDSIKKMIDPHVRLEVNGREVHGMEEFARVMIEIRFRRIDLRERDIFNGVLHLRLEVDWEYGDKRFETEEEVVYFKVNGRWILESMRVR ?
Result block: 1.26

Query block: Which protease stability score is listed for DEDHEEVEKYLKLFMKISETGNEEDIKKMADPDTRVDIGDKRHHGMEEFLHFWSHWRIHSIDIKDIEVQGEKVIITGETDVTIDGRKLRMKIIIVALKVNGKWIHKSVKFE ?
Result block: 1.37

Query block: Which protease stability score is listed for SEDEKASKEAFELWRRVDETGDEHSLLRLLDPHVRLHIGDKHLHGREEVKRLLEELGVSRVHFDLRTIRVINGKVFVHGDFEVGDKRTHSEIVALKVDGRWINESIHIR ?
Result block: 0.806

Next:
Query block: Which protease stability score is listed for DEKRKVEERLLELIIEIFRTGDWEWYSELADPNVRVHQGEYHKHGREQASKHLLDELRHLGIKHIDERSYDVIDGQVYWHVRIEVGDKERQMHIRVRIVNGVLQHVHIEIH ?
Result block: 1.17

---

# Lookup of reported protease stability score keyed by entry
ASSAY METHOD TEXT: protease stability score; higher = more stable; yeast display proteolysis, trypsin and chymotrypsin;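 also: relative to predicted unfolded state with 0 unfolded-like and 1 meaning tenfold more protease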
Please reply with the value in numeric form only.

Solved cases (8 shown):
Query block: Which protease stability score is listed for RHEEEVLEHWMRLYIEALLTGDEHTLHRLLDPNAKVHIDGRDVVGREEIVRWLREFWNEIRIKHLTISDLKIYGEYVHITGTLNVQVNGQTEHRRIEIDLVIIDGVFKESEVRIH ?
Result block: 2.39

Query block: Which protease stability score is listed for DEEVAKKMMEAWMKALQNGNDEQMKKLYDPTVRWEDGNTEKQGLEVVVKLVQTVKKKGIEFQVRKAKVKGNQVEVHYDMKVGDDTVTFTVQFRAQGGRIQEVRVEISEEARKAVKKG ?
Result block: 1.32

Query block: Which protease stability score is listed for SEEEHLSKLTKKHMLHLWETGNETILEELADPNARHRWLVNGKEVTAHGREEVTRLFRDILDELGVDHLKLHSETVIGEKIHFDMIMIIGEFESRVRLNLHIVNGRIKEIDLQEQ ?
Result block: 0.445

Query block: Which protease stability score is listed for SEEDEIMRRLIDITLHAFQTGDWEAVKTMADPNTRLHVNGRDIHGRDEILRFLEKSRRDLGVENIRIDYTDYRQFDGKVKYHGTDIYNGQRLETTIIIVIVDGKMKTETREIR ?
Result block: 0.82

Query block: Which protease stability score is listed for SEDEEHARRFRELWLRIFHTGDWHEFHKLLDPNVRTQVGEFHDIGRESAAEHLELFLKQLGVDHTDITHVELIYIGDKVEVNILLRKEQGDKEYTFRIHIVVRKVNGQWLIKSIHITVE ?
Result block: 1.54

Query block: Which protease stability score is listed for DELHKLAEDHLEDFSRAIHTGDEDHLHHLIDPDVRYHQGDKNLHGRESWHEILERIDHVESEDVKMHRIERQGNKLIIDGEWHMRFVYNGQEKRVEMNTIVILLKVNGKWVNEAWHIR ?
Result block: 0.463

Query block: Which protease stability score is listed for TEEKHMVLKIMEQVLQKWVTGDEDVLDHLLDPDDRLHLLQGDKFVEYHGWEEANKAWNEMRITHIELHDIRAQGDKVTSDGTLDGHFNGRRTRVRVRVHLIIVNGRLKEVELQLH ?
Result block: 0.924

Query block: Which protease stability score is listed for SDEEERIRRVAEHILHLILTGDEDRWEDMMDPNVRVHIDWNGVKIHLHGREKAAEFFKRFKNIRIEIHSVRIIGEKNDSDERLHVNGQTRDLHNHIIVVNGRIEHMEIRVR ?
Result block: 2.66

Next:
Query block: Which protease stability score is listed for DEDTRDAEHISRMMLHAFITGDERLIEKNADPDTRIDVNGVDYHGREEMVKLFKRWLDELGVNHMEIKETTTHVYDGRVEVVLHLHVDYNGRRHHLIIIIINDKFDGQWRIRSLEFEER ?
Result block: 1.37

Query block: Which protease stability score is listed for DESKRDVKMFHEIFLRAQSTGDEDELSHLADPNVRIHQGEFHNIGMEEFVKHIREMRVHVRDSHIERVEIQGDKLIVEVRLHMEIRYNGQRTERDVNLHLIIIKINGRWILHSIHIE ?
Result block: 1.02

Query block: Which protease stability score is listed for DERHQDLREVLTRLMHLLLTGDWDEFHRLADPSTQLEVGDFHFHGWEMVVEFLKRFYFHIRLRRFHIEHVRVINGRIDSDTRVESEVNGVRDVERTHVHLNKVDGRWVIKRMHME ?
Result block: 0.966

---

ASSAY METHOD TEXT: protease stability score; higher = more stable; yeast display proteolysis, trypsin and chymotrypsin;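 also: relative to predicted unfolded state with 0 unfolded-like and 1 meaning tenfold more protease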
Would you please tag the item Yes when its protease stability score is 1 or above, and No when it is below?

Answered cases to consult:
Query block: Dear colleague, could you confirm whether DEEKEMNRHFLEHLKTAYETGDEDSIIKNIDPHYRIIVGDKDLIGMEHVKKWLHHARIHEIHPRRLEVQGNKITNDIHVVGEVNGVLRSTDQIWYLLKVDGRWLIESIEIK has protease stability score at or above 1?
Result block: Yes

Query block: Dear colleague, could you confirm whether SEDVRDAHEMARIFLEVFRTGNEHHHERMMDPHARVRFDGVDHHGREESTKLLLELWRRVDHLHMDITDLRVQGDKVEVHIRLENRYNGRTHIIHVHLVMIKVDGRWVIREIHFD has protease stability score at or above 1?
Result block: No

Query block: Dear colleague, could you confirm whether NEIEELVRESLELLAHALETGDEKLMTELADPDTRLIVNGRHLWGWELHLMFLTRFDHIETRIRLTEMEVQGEKVNSRGDMDVIVNVDGQRDRKRHEFIIISTKINGRWRLKSVILR has protease stability score at or above 1?
Result block: Yes

Query block: Dear colleague, could you confirm whether SEDEKVALEMLEWLSTARRTGDEHVMRELIDPHTRLHYGDKIYIGRDHVIELLLQLRVHIHHVELTHFESVGDKIKLHTEEDGHIDIDGRHHRVIIHTTMYARKFDGQWHTEEIRIH has protease stability score at or above 1?
Result block: Yes

Switching to the query record.
Query block: Dear colleague, could you confirm whether EEEKDWSTEVLRLFLEMMATGDWEFLARFLDPHVKLEVDGREFHGREEVSRSLEEHFRKFGADHVEIRLRRIREVDGRLHVDGRLILHIGDKTIERDMQVHSYKIDGQWSIHEVTHK has protease stability score at or above 1?
Result block: Yes

---

ASSAY METHOD TEXT: protease stability score; higher = more stable; yeast display proteolysis, trypsin and chymotrypsin;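 also: relative to predicted unfolded state with 0 unfolded-like and 1 meaning tenfold more protease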
# Lookup of reported protease stability score keyed by entry
Please reply with the value in numeric form only.

Query block: Which protease stability score is listed for SEHEDMFREMAELLLESLVTGDFRQLKRLADPHMRLKINGKDTHGREEFSRVFKELDDELGVDHIEIKHLRVQGDKIHIHGKMHFDGRWHERHVDVEIFNGVVRHHRVEIR ?
Result block: 1.3

Query block: Which protease stability score is listed for DEEKRLLEEAARHMVDSWRTGDEEVIERMMDPHDKLILYINGVNFDLHGREIVSRWIKEELDEIRIRINVEDIKVFNGVAFVDGELRVEINGREKRVKEEIILFIIDGRLKSHEIRRH ?
Result block: 1.23

Query block: Which protease stability score is listed for TEEDEFWERYVQLLRELWITGDEETWKNLADPNTRLHINGVTAHGREEVEHVYKKILEDLGIDVRHIHRIDVQGDKMRIDSRNNIDGQIFRLHIENHFVNGRLQFIRMEVH ?
Result block: 1.25

Now examine the next entry.
Query block: Which protease stability score is listed for DEEEKMHTKAVELTETILKTGDERIIKEMADPNTRVIFDGVDLHGMEHWTEFWRRLGFKHIEIRTTEVVDGRVIIIQHVRYNGKKHESHVYADKIDGRWLYTHVEIR ?
Result block: 0.618

---

ASSAY METHOD TEXT: protease stability score; higher = more stable; yeast display proteolysis, trypsin and chymotrypsin;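 also: relative to predicted unfolded state with 0 unfolded-like and 1 meaning tenfold more protease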
# Lookup of reported protease stability score keyed by entry

Solved cases (8 shown):
Query block: Which protease stability score is listed for DDIEKDIREVLDILIRAFQTGDEDKILELFDPHARVDVGEYHNHGWERVEEWMHRVDHIDVRRLEIKHFHHINGRIVLHTHFDGILTINGREIHTETEVHIILVKINGKWYFKEISHH ?
Result block: 2.12

Query block: Which protease stability score is listed for SEEEEIARELSEEVYRHWHTGDFRMLERYFDPHVRIIYDGRDYHGREIASTVLRETNKEWRTESMEVKDVKFINGKLHVDISSDTLYNGKRVSTSIKIVSVKVDGQWVIHQMKYV ?
Result block: 1.1

Query block: Which protease stability score is listed for SEEERYHDKALKILKESVDTGDPHLLSRYMDPNDRLDINGREIHGMEILLKELLHIMERADHIRIELNDIKMQGDFLELDGILIIHQGEYTLQLRVKLVSLKVDGRWLHHSIEVK ?
Result block: 0.171

Query block: Which protease stability score is listed for SDHDKRVMHIWRAVLESYLTGDEHTLKELIDPNTRFFIGDKEYHGMETFSRYARRMYEHLRFSIEVKHEDAINGRYDTHLTLHWEIGDKTDTYDTRLHLDVYDGVVKRLEIRVH ?
Result block: 1.46

Query block: Which protease stability score is listed for SEDQEIAVKLLHEMMEALRTGDEDYLRRLFDPNMRFNQGDKTHHGMDWVHSFLRRYDYFEVRHVRVHHVEVQGEKIIIDGRLEGSIRVDGVLQENEISVIFIIIKINGKWFVQTIRFN ?
Result block: 1.21

Query block: Which protease stability score is listed for HELLEIIHRVAQMIYENLLTGNEDLFEHLADPNRRLLVNGVDLVGWERVVKWEKEMRIHDHRLRDESMTRQGDKAFVHHRTELRGDINGREIHTETKLNIVIRKIDGKWIVERIEVRID ?
Result block: 0.81

Query block: Which protease stability score is listed for DEEEEWATEAWKLHLHHHRTGDERMIHELLDPNMRLDFDGVELHGRKLVKEFIERTLRRFDVIDEYDHSDVRIQGDKVDLIQVVRGEIDGRRTHVNQRLIMIKIDGRWVVKHVRLQ ?
Result block: 1.23

Query block: Which protease stability score is listed for SDLDEVARHATQLIEEVQQTGDWHTLMRLADPNTRLLIGDKVIHGMTELIRILDELYERWGVSKVKVRLHDVRVQGDKVDVDTRSEFNGREVKVRFIIRKVDGRWHLKSVEEHLD ?
Result block: 1.12

Next:
Query block: Which protease stability score is listed for DSLHEKVEIMAHLLVEIIRTGNEEDWRRYVDPNVRIRIGDKDLHGREEAFRVVREIRIIVHDIKIRSLDVQGDKVESDVEVDVEFRIGDKVNRIHTRFRLIWTKVDGRWINESMSIE ?
Result block: 2.61

Query block: Which protease stability score is listed for TEDEHHEELIAKELFHNFLTGNEDLLSEMADPNTKSDIDGKHDVGREEMSRSLIEFLDKMGIKHLVLTDHRAVNGKVILHERVHVNGRDIEVNLTWDVWNGRIKRVEIRITHR ?
Result block: 0.982

Query block: Which protease stability score is listed for DEHEEELKRILELIEHLIHTGDEDTMLHLADPNVRSHVNGRDRHGWNLYLRLLEELVWRLGIKHMEIHSTTAIDGRVIIHMRLHVGDKTIHVILLFQVVDGRVKSSSVEVHEE ?
Result block: 1.44

Query block: Which protease stability score is listed for SETEKFAEIALKLWIRRLRTGDEHEESMLADPNTLYVQGDKNIHGMERISRFFKEILTRHGITFNHFHLEHIEVQGNKVRLDLRVDGEFDGQRMNQEVELISIKVDGRWFLESVIIR ?
Result block: 1.62

Query block: Which protease stability score is listed for DEDEEIDKHVAKHLEELFLTGDEKRLSQYFDPDVRNEVNGKEFHGRELLLKVLRDFGADHRTVEHREVSLYGEKMRFHIHLRLHVGDKSMTTILHIIIDKVNGRWHFEKIRIDVR ?
Result block: 0.798

Query block: Which protease stability score is listed for SEEEKDATDMLEHYIRSLLTGDEHLWRELADPNVKTEIDGVEMIGRESWRILVERLGVDHSDVEDIDFRFYDGRLNVRVKTRHHVNGRTFETELIVIIEKINGRWRVTQIEIRIK ?
Result block: 2.5

Query block: Which protease stability score is listed for HDLEETVRDMIHLLMTFVETGDEDSVHRLIDPHVRVEVGDKLTHGRQWVHLLIKRADVLEIRIEDMRIVGDKALIVSKYHIRIDGVFIVYNIDIYAEKIDGRWVTTEIKVD ?
Result block: 1.71

Query block: Which protease stability score is listed for DEEEEQTHHMFKRILEVLRTGDERMLLDLADPHVRLEVGDKHMIGMDSLVHFNARIKNMRIRLRSIDFQGDYAHINTELEFDGRNHHITIVVLKVDGKWIIRSQHVK ?
Result block: 1.46

Query block: Which protease stability score is listed for DEEREKVIRFLERFQESSRTGDEETLHRLADPNVKLTVDGRELHGREVMVRYAIEWRIEDVEPKRYTEQGDKLILHVRIHTTIGDKHEVREVDLFVRKIDGRWIMEEFRVR ?
Result block: 0.96

Query block: Which protease stability score is listed for DENEELLTDMIRLLKNVLETGDEEHFHRLADPHVRFKIGDKIFHGREEATRIFSEVMERFKNVRLRLEHIEIIGDKITIHTRIDVGDKSYEMHIHARKVNGKWIMETLFIR ?
Result block: 1.17
